- experiment-description: Cell viability of Vero cells
- Assay type: cell-based
- reported-conditions: African green monkey
property-measured: CC50 at 4 d (µM)
One number for each entry, in µM.

Query: # get_value(readout='CC50 at 4 d', item= CC(C)(C)c1cnc(CSc2cnc(NC(=O)C3CCN(CC(=O)NCCOCCOCCOCCNc4cccc5c4C(=O)N(C4CCC(=O)NC4=O)C5=O)CC3)s2)o1 (stereo not shown) )
Result: 43.9

* * *

- System: HCMV AD169-GFP
- experiment-description: microbe, parasite or virus in culture
- Type: cell-based, Human cytomegalovirus
- reported-conditions: Human betaherpesvirus 5, AD169
property-measured: EC50

Query: # get_value(readout='EC50', item= Cc1c(Br)c(Br)c2c3c1nc(N1CCNCC1)n3CCC2 [SEL120] )
Result: 120 nM

* * *

For each record, write down the corresponding CC50 at 48 h.
- experiment-description: in vitro
- Type: cell-based
- reported-conditions: human
Give bare numbers, in µM.

CC(C)(C)c1cnc(CSc2cnc(NC(=O)C3CCN(CC(=O)NCCOCCOCCOCCNc4cccc5c4C(=O)N(C4CCC(=O)NC4=O)C5=O)CC3)s2)o1 (centres unmarked) [THAL-SNS032] : 64.9

Then there is this compound:
Query: # get_value(readout='CC50 at 48 h', item= CC(C)(C)c1cnc(CSc2cnc(NC(=O)C3CCNCC3)s2)o1 [SNS032] )
Result: 59.5

* * *

- experiment-description: in vitro
- Format: cell-based
- reported-conditions: mouse, CC50
- Protocol: Drug induced cytotoxicity in HFF and other cell types was measured as a reduction of cell viability determined by Neutral Red uptake assay (NRA), as described previously. […] The amount of incorporated Neutral Red was released from the cells by incubation with destaining solution (50% ethanol, 49% H2O, 1% acetic acid), and subsequently quantitated in a microplate reader by fluorescence measurement using 560/630 nm for excitation/emission, respectively. […]
property-measured: CC50 at 5 d

CC(C)(C)c1cnc(CSc2cnc(NC(=O)C3CCN(CC(=O)NCCOCCOCCOCCNc4cccc5c4C(=O)N(C4CCC(=O)NC4=O)C5=O)CC3)s2)o1 (centres unmarked) [THAL-SNS032] : ~1000 nM

Then there is this compound:
Query: # get_value(readout='CC50 at 5 d', item= CC(C)(C)c1cnc(CSc2cnc(NC(=O)C3CCNCC3)s2)o1 [SNS032] )
Result: ~1000 nM

* * *

- System: HCMV Merlin
- experiment-description: HCMV-specific qPCR replication assay in TEV-1 trophoblast cells
- Assay type: cell-based, Human cytomegalovirus
- reported-conditions: Human betaherpesvirus 5, 168 h; HCMV Merlin, TEV-1, 7 d p.i.
property-measured: pEC50
Give bare numbers, as −log10 of the molar value.

Query: # get_value(readout='pEC50', item= CC(C)(C)c1cnc(CSc2cnc(NC(=O)C3CCN(CC(=O)NCCOCCOCCOCCNc4cccc5c4C(=O)N(C4CCC(=O)NC4=O)C5=O)CC3)s2)o1 (stereo not shown) )
Result: 7.12

* * *

- experiment-description: in vitro
- Type: cell-based
- reported-conditions: human, CC50
property-measured: CC50 (nM)
Answers are plain numbers, in nM.

CC(C)(C)c1cnc(CSc2cnc(NC(=O)C3CCNCC3)s2)o1 : 240

Then there is this compound:
Query: # get_value(readout='CC50', item= CC(C)(C)c1cnc(CSc2cnc(NC(=O)C3CCN(CC(=O)NCCOCCOCCOCCNc4cccc5c4C(=O)N(C4CCC(=O)NC4=O)C5=O)CC3)s2)o1 (centres unmarked) )
Result: 125
